Hey, just so you know, these numbers are from paper PMC10223284.

test system: human plasma; assay: Ultracentrifugation (UC) plasma protein binding assay, fraction unbound in plasma (fup); conditions: point estimate of fraction unbound in plasma, UC assay Level4
Measurement label: Fup.point

Here are 3 compounds together with their reported answers.
Record smiles | Fup.point
FC(F)(F)COC(OCC(F)(F)F)OCC(F)(F)F | 0.0994
Cc1ccc(S(=O)(=O)OCC(F)(F)C(F)(F)C(F)(F)C(F)(F)C(F)(F)C(F)F)cc1 | 0.0275
OCCCC(F)(F)C(F)(F)C(F)(F)C(F)(F)C(F)(F)C(F)(F)C(F)(F)C(F)(F)F | 0.0352

Now consider the entry below.
Given the compound FC(F)(I)C(F)(F)C(F)(F)C(F)(F)C(F)(F)C(F)(F)I , what is its reported Fup.point?
0.267

---

system: human plasma; test: Ultracentrifugation (UC) plasma protein binding assay, fraction unbound in plasma (fup); conditions: median fraction unbound in plasma, UC assay Level4
Measurement label: Fup.Med
I'd appreciate a reply containing only the number, no unit.

The examples below pair each entry with its known result.
Compound | Measurement label | Result number
OCC(F)(F)C(F)(F)C(F)(F)C(F)(F)C(F)(F)C(F)(F)C(F)(F)C(F)(F)C(F)(F)C(F)(F)C(F)(F)F [11:1 Fluorotelomer alcohol] | Fup.Med | 0.0578
OCC(F)(F)C(F)(F)C(F)(F)C(F)(F)C(F)(F)C(F)(F)CO [1H,1H,8H,8H-Perfluorooctane-1,8-diol] | Fup.Med | 0.0465

Dear colleague, I am looking for the recorded Fup.Med of the following compound: NCC(F)(F)C(F)(F)C(F)(F)C(F)(F)C(F)(F)C(F)(F)C(F)(F)C(F)(F)F [1H,1H-Perfluorononylamine]
0.0402

Check Cc1ccc(S(=O)(=O)OCC(F)(F)C(F)(F)C(F)(F)C(F)(F)C(F)(F)C(F)F)cc1 too.
0.116

---

assay: in vitro; conditions: both, human, plasma, Mean Fu, mean fraction unbound in human plasma over all UC replicates/runs
Measurement label: fraction unbound
Please respond with just the number, no unit label.

Below, 5 compounds whose answers are already recorded.
Compound | Result number
FC(F)(I)C(F)(F)C(F)(F)C(F)(F)I | 0.00546
OCC(F)(F)C(F)(F)C(F)(F)CO | 0.06
OCC(F)(F)C(F)(F)C(F)(F)C(F)(F)C(F)(F)C(F)(F)C(F)(F)C(F)(F)CO [1H,1H,10H,10H-Perfluorodecane-1,10-diol] | 0.841
FC(F)(Br)C(F)(F)C(F)(F)C(F)(F)C(F)(F)C(F)(F)Br | 0.00422
C=C(C)C(=O)OCC(F)(F)C(F)(F)C(F)(F)C(F)F [1H,1H,5H-Perfluoropentyl methacrylate] | 0.248

May I ask what fraction unbound has been recorded for NC(=O)C(F)(F)C(F)(F)C(F)(F)F [Heptafluorobutyramide] ?
0.603

---

experiment: Hepatic metabolic stability (hepatocyte clearance) assay, substrate depletion; type: in vitro ADME, human; conditions: both sexes, human, hepatocytes, clearance rate in hepatocytes
Measurement label: hepatocyte CLint at 1 μM (µL/min/1e6 cells)
Give just the number in µL/min/1e6 cells; leave the unit off.

Endpoint output: hepatocyte CLint at 1 μM of OCC(F)(F)OC(F)(F)C(F)(F)OC(F)(F)C(F)(F)OC(F)(F)CO . Value?
20

---

experiment: in vitro; settings: both, human, plasma, Mean fu, fraction unbound in human plasma, used for IVIVE
Measurement label: fraction unbound
Provide a numeric answer; units are not to be included.

Fill in: fraction unbound of NC(=O)C(F)(F)C(F)(F)C(F)(F)F [Heptafluorobutyramide] is ___
0.603

---

Item-by-item account of Hep_Stab_Fail
assay: Abiotic loss in negative controls of the hepatocyte clearance assay (cell-free media, metabolically inactivated hepatocytes); format: in vitro ADME; conditions: both, human, 120 min, 1 μM
Give a plain numeric answer without units written out.

Please review the following examples before continuing.
Compound | Result number
COC(=O)C(F)(F)C(F)(F)OC(F)(C(F)(F)F)C(F)(F)OC(F)=C(F)F (stereo not drawn) | 1
FC(F)(F)C(F)(C(F)(F)F)C(F)(F)C(F)(F)CC1CO1 (stereo not drawn) | 1
OCC(F)(F)OC(F)(F)C(F)(F)OC(F)(F)C(F)(F)OC(F)(F)CO | 0
OCC(F)(F)OC(F)(F)C(F)(F)OC(F)(F)CO | 0
C=CC(=O)OCC(F)(F)C(F)F [2,2,3,3-Tetrafluoropropyl acrylate] | 1

// next entry
Entry under review: NC(=O)C(F)(F)C(F)(F)F [Pentafluoropropionamide] . Reported Hep_Stab_Fail?
0

---

system: human plasma; experiment: Chemical stability in plasma over the UC assay time course (T5hr/T1hr); settings: flag for stability failure in the plasma protein binding assay (1 = fail, 0 = pass)
The following compounds are shown together with reported PPB_Stab_Fail values.
Lab note: write the figure by itself, no unit.

Compound | PPB_Stab_Fail
OCCC(F)(F)C(F)(F)C(F)(F)C(F)(F)C(F)(F)C(F)(F)F | 0

Fill in: PPB_Stab_Fail of Cc1ccc(S(=O)(=O)OCC(F)(F)C(F)(F)C(F)(F)C(F)(F)C(F)(F)C(F)F)cc1 is ___
0

What do you get for FC(F)(F)COC(OCC(F)(F)F)OCC(F)(F)F ?
0

Please do the same for OCCCCC(F)(F)C(F)(F)C(F)(F)C(F)(F)F as well.
0

Also C=CC(=O)OCCC(F)(F)C(F)(F)C(F)(F)C(F)(F)F [2-(Perfluorobutyl)ethyl acrylate] ?
1

Now the compound NCC(F)(F)C(F)(F)C(F)(F)C(F)(F)C(F)(F)C(F)(F)F
0

Okay, and CC(O)C(F)(F)C(F)(F)F (stereo not shown) ?
1

---

system: human plasma; experiment: Ultracentrifugation (UC) plasma protein binding assay, fraction unbound in plasma (fup); settings: amount measured in aqueous fraction after ultracentrifugation, run average, unit not given
Label 1 when Aqueous Fraction, Run-specific Avg is strictly below 200; otherwise label -1.

Study these solved cases before continuing.
Compound | Discrete label
OCC(F)(F)C(F)(F)C(F)(F)C(F)(F)C(F)(F)C(F)(F)C(F)(F)C(F)(F)CO [1H,1H,10H,10H-Perfluorodecane-1,10-diol] | -1
C=C(C)C(=O)OCC(F)(F)C(F)(F)C(F)(F)C(F)F [1H,1H,5H-Perfluoropentyl methacrylate] | 1
NC(=O)C(F)(F)C(F)(F)C(F)(F)F [Heptafluorobutyramide] | -1
OCCC(F)(F)C(F)(F)C(F)(F)C(F)(F)C(F)(F)C(F)(F)F [6:2 Fluorotelomer alcohol] | -1

is_below(Aqueous Fraction, Run-specific Avg, 200) for OCC(F)(F)C(F)(F)C(F)(F)CO [Hexafluoroamylene] ?
-1

Same again, this time with NCC(F)(F)C(F)(F)C(F)(F)C(F)(F)C(F)(F)C(F)(F)C(F)(F)C(F)(F)F [1H,1H-Perfluorononylamine]
-1

---

test: Hepatic metabolic stability (hepatocyte clearance) assay, substrate depletion; format: in vitro ADME, human; conditions: both sexes, human, hepatocytes, in vitro CLint
Measurement label: hepatocyte CLint at 1 μM (µL/min/1e6 cells)
Give the value, in units of µL/min/1e6 cells, as a plain number.

Item under review: NS(=O)(=O)C(F)(F)C(F)(F)C(F)(F)C(F)(F)C(F)(F)C(F)(F)C(F)(F)C(F)(F)F [Perfluorooctanesulfonamide, reference compound] . Reported hepatocyte CLint at 1 μM?
11.9

---

test system: human plasma; assay: Ultracentrifugation (UC) plasma protein binding assay, fraction unbound in plasma (fup); settings: human plasma, 10 μM, ultracentrifugation, 37 °C
Measurement label: fup
Provide a numeric answer; units are not to be included.

The following compounds have reported results that may help.
Record smiles | Measurement label | Result number
OCCC(F)(F)C(F)(F)C(F)(F)C(F)(F)F | fup | 0.1680
FC(F)(Br)C(F)(F)C(F)(F)C(F)(F)C(F)(F)C(F)(F)Br | fup | 0.004
Cc1ccc(S(=O)(=O)OCC(F)(F)C(F)(F)C(F)(F)C(F)(F)C(F)(F)C(F)F)cc1 | fup | 0.0290

// moving on: another record for fup
Any idea what fup was measured for NC(O)(C(F)(F)F)C(F)(F)F ?
1

---

test system: human plasma; assay: Ultracentrifugation (UC) plasma protein binding assay, fraction unbound in plasma (fup); settings: average of one UC run (run date in line above)
Assign TRUE whenever Fraction Unbound (fu), Run-specific Avg does not fall below 0.4; assign FALSE whenever it does.

Compound | Discrete label
OCC(F)(F)C(F)(F)C(F)(F)CO | TRUE
FC(F)(F)C(F)(F)C(F)(F)C(F)(F)CCI [1H,1H,2H,2H-Perfluorohexyl iodide] | FALSE
CN(C(=O)C(F)(F)C(F)(F)C(F)(F)F)[Si](C)(C)C | TRUE

Textbook exercise: given the entry OCC(F)(F)C(F)(F)C(F)(F)C(F)F , state whether its Fraction Unbound (fu), Run-specific Avg is greater than or equal to 0.4.
FALSE

And for FC(F)(F)COC(OCC(F)(F)F)OCC(F)(F)F ?
FALSE
